In this section we review reported GI50 values for a set of molecules.
- Tested on: NCI-H460
- ASSAY_REMARKS: NCI tumour cell line growth inhibition, 48 h
Calls of active or inactive are those of the source. Rule as the data show it: active = GI50 up to about 1.1 µM and inactive = higher.
READOUT_TYPE: GI50

MOLECULE	MEASURED_TARGET	RECORDED_VALUE
CCCCn1c(C)c2c(c1C)C(=O)N(CC(O)CN1CCc3ccccc3C1)C2=O (configuration not stated)	NCI-H460	86.7 µM (inactive)
Cc1ccc(C(=O)Nc2ccccc2)cc1/N=N/N(C)C	NCI-H460	> 100 µM (inactive)
Cc1ccc(S(=O)(=O)N/N=C(\C(=O)Nc2cccc([N+](=O)[O-])c2)c2nc3ccc([N+](=O)[O-])cc3nc2O)cc1	NCI-H460	33.5 µM (inactive)
CCN(CC)/C(SCc1ccccc1)=C(\C(Cl)=C(Cl)Cl)[N+](=O)[O-]	NCI-H460	22.3 µM (inactive)
Cn1c2ccccc2c2[nH]cc3nc4ccccc4c-3c21	NCI-H460	15.5 µM (inactive)
O=C(CC(=O)N(C(=O)c1ccccc1)c1ccc(Cl)cc1)N/N=C\c1cc(/N=N/c2ccccc2Cl)ccc1O	NCI-H460	> 100 µM (inactive)
CSC(CC(=O)O)C(=O)O (configuration not stated)	NCI-H460	> 100 µM (inactive)
